Experiment: yeast display, Sf9 membrane polyspecificity reagent, FACS + sequencing; frameworks hold sequencing errors
observed-property: polyreactivity (PSR sort gate)

Example entries begin here.
sequence-text	observed-property	result
QVQLVESGGGLVQAGGSLRLSCAASGSIFSYNAMGWDRQAPGKESELVAAITSGGGTNYADSVKGRFTISRDNAKNTVYLQINSLKPEDTAVYYCNAVPNYYDYDSWGQGTQVTVSS	polyreactivity (PSR sort gate)	high polyreactivity
QVQLVESGGGLVQAGGSLRLSCAASGRTFFRYAMGWYRQAPGKERELVAAISSRGGSTYYADSVKGRFTISRDNAKNTVYLQMNSLKPEDTAVYYCNADAFINFILYDYWGQGTQVTVSS	polyreactivity (PSR sort gate)	high polyreactivity
QVQLVESGGGLVQAGGSLRLSCAASGSTFGYYAMGWYRQAPVKERELVAAISAGDRTYYADSVKGRFTISRDNATNTLYLQMNSLKPEDTAVYYSAARPLRSRNGYYWGQGTQGTVSS	polyreactivity (PSR sort gate)	high polyreactivity
QVQLVESGGGLVQAGGSLRLSCAASGSTFVSYAMGWYRQAPGKERELVAVISYRGGGTYYADSVKGRFTISRDNAKNTVYLQMNSLKPEDTAVYYCNAELWVLVSSYSYHYDGFDYWGQGTQVTVSS	polyreactivity (PSR sort gate)	low polyreactivity
QVQLVESGGGLVQAGGSLSLSCAASGSILFTNAMGWYRQAPGKERELVAAISSGGSTYYADSVKGRFTISRDNAKNTVYLQMNSLKPEDTAVYYCAASDHYRWYVHRWEDPFYYWGQGTQVTLSS	polyreactivity (PSR sort gate)	low polyreactivity

Please look at the following sequence next.
Note polyreactivity (PSR sort gate) for the sequence shown: QVQLEESGGGLVQAGGSLRLSCAASGSIFPWYAMGWYRQAPGKERELVAVITSGGSTNYADSVKGRFTISRANAKNTVYLQMNSLYPEDTAVYYCYADAPLDDFSPRFEVSTEHSWGQGTQVTVSS
low polyreactivity
